- SYSTEM_NAME: serpin enzyme complex receptor (SEC-R) on human hepatoma cell lines (human)
- PROTOCOL_SUMMARY: 125I-C105Y saturation binding on HuH7 cells, Scatchard analysis
Ends that are not written are not given here.
VALUE_KIND: Kd (nM)
# unit: nM | format: bare number

Using the record for CSIPPEVKFNKPFVYLI (also: radio-iodinated with 125I, site not given here) [Peptide C105Y] , report its Kd.
70
